The measured values listed here are drawn from patent US20030224036A1.

target: HLA-A*0206 (human); experiment: competitive binding assay, purified HLA; details: remark: other sources report otherwise
pIC50: −log10 of the molar value.
measurement.name: pIC50

INSERT INTO measurements (binder, measurement_name, numeric_value) VALUES
  ('YLSGANLNV [CEA.605V9]', 'pIC50', 7.10);
